molecular target: Sulfhydryl oxidase 1 (Homo sapiens) (UniProt O00391); assay: QSOX1 enzyme inhibitors, primary screen, biochemical, ROS-Glo H2O2 luminescence, HTS (AID 1347418); settings: recombinant QSOX1, ROS-Glo H2O2 luminescence; at 12.5 µM; active compounds read high; active = any value above zero
Sequence (O00391 whole entry, looked up): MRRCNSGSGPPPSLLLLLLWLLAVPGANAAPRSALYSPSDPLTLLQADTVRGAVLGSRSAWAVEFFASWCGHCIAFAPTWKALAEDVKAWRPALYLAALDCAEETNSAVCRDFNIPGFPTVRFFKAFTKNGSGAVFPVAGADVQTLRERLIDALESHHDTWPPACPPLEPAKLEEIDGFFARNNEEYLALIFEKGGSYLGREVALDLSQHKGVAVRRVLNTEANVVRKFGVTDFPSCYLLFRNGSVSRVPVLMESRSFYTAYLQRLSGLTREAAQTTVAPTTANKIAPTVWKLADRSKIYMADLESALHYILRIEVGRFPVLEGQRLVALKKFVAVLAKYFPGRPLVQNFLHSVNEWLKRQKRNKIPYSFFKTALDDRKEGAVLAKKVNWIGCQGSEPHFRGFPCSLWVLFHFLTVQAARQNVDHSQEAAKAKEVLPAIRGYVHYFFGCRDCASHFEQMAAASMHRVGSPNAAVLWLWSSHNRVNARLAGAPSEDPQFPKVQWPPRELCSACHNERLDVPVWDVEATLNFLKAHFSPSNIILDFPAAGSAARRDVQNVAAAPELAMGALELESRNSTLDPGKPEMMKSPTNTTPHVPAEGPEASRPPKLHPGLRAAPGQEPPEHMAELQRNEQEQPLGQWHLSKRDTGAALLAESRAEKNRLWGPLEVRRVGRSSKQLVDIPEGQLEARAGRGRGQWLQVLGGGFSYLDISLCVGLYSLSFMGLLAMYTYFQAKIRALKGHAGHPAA
Out of some 1,300 compounds screened, about 750 (58%) were called active. The list shows a part of the results.
I would appreciate it if you answered using one of these outcomes: true (1) = active, false (0) = inactive

See these solved cases before continuing.
compound="NCCC1CCCC(CCN)N1 (configuration not stated)" group="false (0)"
compound="Clc1ccc(C(c2ccccc2Cl)C(Cl)Cl)cc1 (configuration not stated)" group="true (1)"
compound=CC(C)OC(=O)C(C)(C)Oc1ccc(C(=O)c2ccc(Cl)cc2)cc1 group="false (0)"

query: Answer briefly: the call reported for CCc1cccc(N(C)C(N)=Nc2cccc3ccccc23)c1 in this assay.
result: true (1)

query: Answer briefly: the call reported for NC(=O)c1cn(Cc2c(F)cccc2F)nn1 in this assay.
result: true (1)

query: Answer briefly: the call reported for CCCCCCCCCCCCCCC[C@H](O)[C@H](N)CO in this assay.
result: true (1)

query: Answer briefly: the call reported for CC(C)N(CCC(=O)c1ccc2ccccc2c1)Cc1ccccc1 in this assay.
result: false (0)

query: Answer briefly: the call reported for Cc1nc2c(OCc3ccccc3)cccn2c1CC#N in this assay.
result: false (0)

query: Answer briefly: the call reported for Cc1cnc(NC(=O)C2=C(O)c3ccccc3S(=O)(=O)N2C)s1 in this assay.
result: true (1)

###

biological target: Sulfhydryl oxidase 1 (Homo sapiens) (UniProt O00391); assay: QSOX1 enzyme inhibitors, primary screen, biochemical, ROS-Glo H2O2 luminescence, HTS (AID 1347418); settings: recombinant QSOX1, ROS-Glo H2O2 luminescence; at 12.5 µM; active compounds read high; active = any value above zero
The whole screen tested about 1,300 compounds, of which about 750 (58%) were called active. This is one part of the list.
I would appreciate it if you answered using one of these outcomes: active, inactive

molecule=CCCCCCCC/C=C\CCCCCCCC(=O)NCCc1ccc(O)c(O)c1 group=inactive
molecule=C[C@@H](NCCc1ccc(O)cc1)[C@@H](O)c1ccc(O)cc1 group=active
molecule=CN(C)CCC=C1c2ccccc2C=Cc2ccccc21 group=active
molecule="CN1CCN(C2Cc3ccccc3Sc3ccc(Cl)cc32)CC1 (stereo unspecified)" group=inactive
molecule=CC(N)=NCCCC[C@@H](N)C(=O)O group=inactive
molecule=C[C@]12C=CC(=O)C=C1CC[C@@H]1C2=CC[C@]2(C)[C@@H](C(=O)CN3CCN(c4cc(N5CCCC5)nc(N5CCCC5)n4)CC3)CC[C@@H]12 group=inactive
molecule="O=C(O)C1CN(CCCP(=O)(O)O)CCN1 (stereo unspecified)" group=active
molecule="NCC(O)c1ccc(O)c(O)c1 (stereo unspecified)" group=active

query: Answer briefly: the call reported for NO in this assay.
result: inactive

query: Answer briefly: the call reported for CCCCN1CCC(n2c(=O)[nH]c3ccccc32)CC1 in this assay.
result: inactive

query: Answer briefly: the call reported for NC[C@H](O)c1ccc(O)c(O)c1 in this assay.
result: active

query: Answer briefly: the call reported for OCCN1CCN(CCCN2c3ccccc3Sc3ccc(Cl)cc32)CC1 in this assay.
result: active

query: Answer briefly: the call reported for COc1ccccc1N1CCN(CCN(C(=O)C2CCCCC2)c2ccccn2)CC1 in this assay.
result: active

query: Answer briefly: the call reported for CNC(=O)c1cc2c(cn1)[nH]c1ccccc12 in this assay.
result: inactive

query: Answer briefly: the call reported for CNCCCC1c2ccccc2C=Cc2ccccc21 in this assay.
result: inactive

query: Answer briefly: the call reported for CC1CCN=C(N)S1 (stereo unspecified) in this assay.
result: inactive

query: Answer briefly: the call reported for CN(C)CCC=C1c2ccccc2CCc2ccccc21 in this assay.
result: inactive

query: Answer briefly: the call reported for CN1CCN(CCCN2c3ccccc3Sc3ccc(Cl)cc32)CC1 in this assay.
result: active
